- Experimental target: Leucine-rich repeat serine/threonine-protein kinase 2 (Homo sapiens) (UniProt Q5S007);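 note: mean percent inhibition of LRRK2 measured in the GSK PKIS kinase inhibitor set screen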
- Sequence (Q5S007 whole entry): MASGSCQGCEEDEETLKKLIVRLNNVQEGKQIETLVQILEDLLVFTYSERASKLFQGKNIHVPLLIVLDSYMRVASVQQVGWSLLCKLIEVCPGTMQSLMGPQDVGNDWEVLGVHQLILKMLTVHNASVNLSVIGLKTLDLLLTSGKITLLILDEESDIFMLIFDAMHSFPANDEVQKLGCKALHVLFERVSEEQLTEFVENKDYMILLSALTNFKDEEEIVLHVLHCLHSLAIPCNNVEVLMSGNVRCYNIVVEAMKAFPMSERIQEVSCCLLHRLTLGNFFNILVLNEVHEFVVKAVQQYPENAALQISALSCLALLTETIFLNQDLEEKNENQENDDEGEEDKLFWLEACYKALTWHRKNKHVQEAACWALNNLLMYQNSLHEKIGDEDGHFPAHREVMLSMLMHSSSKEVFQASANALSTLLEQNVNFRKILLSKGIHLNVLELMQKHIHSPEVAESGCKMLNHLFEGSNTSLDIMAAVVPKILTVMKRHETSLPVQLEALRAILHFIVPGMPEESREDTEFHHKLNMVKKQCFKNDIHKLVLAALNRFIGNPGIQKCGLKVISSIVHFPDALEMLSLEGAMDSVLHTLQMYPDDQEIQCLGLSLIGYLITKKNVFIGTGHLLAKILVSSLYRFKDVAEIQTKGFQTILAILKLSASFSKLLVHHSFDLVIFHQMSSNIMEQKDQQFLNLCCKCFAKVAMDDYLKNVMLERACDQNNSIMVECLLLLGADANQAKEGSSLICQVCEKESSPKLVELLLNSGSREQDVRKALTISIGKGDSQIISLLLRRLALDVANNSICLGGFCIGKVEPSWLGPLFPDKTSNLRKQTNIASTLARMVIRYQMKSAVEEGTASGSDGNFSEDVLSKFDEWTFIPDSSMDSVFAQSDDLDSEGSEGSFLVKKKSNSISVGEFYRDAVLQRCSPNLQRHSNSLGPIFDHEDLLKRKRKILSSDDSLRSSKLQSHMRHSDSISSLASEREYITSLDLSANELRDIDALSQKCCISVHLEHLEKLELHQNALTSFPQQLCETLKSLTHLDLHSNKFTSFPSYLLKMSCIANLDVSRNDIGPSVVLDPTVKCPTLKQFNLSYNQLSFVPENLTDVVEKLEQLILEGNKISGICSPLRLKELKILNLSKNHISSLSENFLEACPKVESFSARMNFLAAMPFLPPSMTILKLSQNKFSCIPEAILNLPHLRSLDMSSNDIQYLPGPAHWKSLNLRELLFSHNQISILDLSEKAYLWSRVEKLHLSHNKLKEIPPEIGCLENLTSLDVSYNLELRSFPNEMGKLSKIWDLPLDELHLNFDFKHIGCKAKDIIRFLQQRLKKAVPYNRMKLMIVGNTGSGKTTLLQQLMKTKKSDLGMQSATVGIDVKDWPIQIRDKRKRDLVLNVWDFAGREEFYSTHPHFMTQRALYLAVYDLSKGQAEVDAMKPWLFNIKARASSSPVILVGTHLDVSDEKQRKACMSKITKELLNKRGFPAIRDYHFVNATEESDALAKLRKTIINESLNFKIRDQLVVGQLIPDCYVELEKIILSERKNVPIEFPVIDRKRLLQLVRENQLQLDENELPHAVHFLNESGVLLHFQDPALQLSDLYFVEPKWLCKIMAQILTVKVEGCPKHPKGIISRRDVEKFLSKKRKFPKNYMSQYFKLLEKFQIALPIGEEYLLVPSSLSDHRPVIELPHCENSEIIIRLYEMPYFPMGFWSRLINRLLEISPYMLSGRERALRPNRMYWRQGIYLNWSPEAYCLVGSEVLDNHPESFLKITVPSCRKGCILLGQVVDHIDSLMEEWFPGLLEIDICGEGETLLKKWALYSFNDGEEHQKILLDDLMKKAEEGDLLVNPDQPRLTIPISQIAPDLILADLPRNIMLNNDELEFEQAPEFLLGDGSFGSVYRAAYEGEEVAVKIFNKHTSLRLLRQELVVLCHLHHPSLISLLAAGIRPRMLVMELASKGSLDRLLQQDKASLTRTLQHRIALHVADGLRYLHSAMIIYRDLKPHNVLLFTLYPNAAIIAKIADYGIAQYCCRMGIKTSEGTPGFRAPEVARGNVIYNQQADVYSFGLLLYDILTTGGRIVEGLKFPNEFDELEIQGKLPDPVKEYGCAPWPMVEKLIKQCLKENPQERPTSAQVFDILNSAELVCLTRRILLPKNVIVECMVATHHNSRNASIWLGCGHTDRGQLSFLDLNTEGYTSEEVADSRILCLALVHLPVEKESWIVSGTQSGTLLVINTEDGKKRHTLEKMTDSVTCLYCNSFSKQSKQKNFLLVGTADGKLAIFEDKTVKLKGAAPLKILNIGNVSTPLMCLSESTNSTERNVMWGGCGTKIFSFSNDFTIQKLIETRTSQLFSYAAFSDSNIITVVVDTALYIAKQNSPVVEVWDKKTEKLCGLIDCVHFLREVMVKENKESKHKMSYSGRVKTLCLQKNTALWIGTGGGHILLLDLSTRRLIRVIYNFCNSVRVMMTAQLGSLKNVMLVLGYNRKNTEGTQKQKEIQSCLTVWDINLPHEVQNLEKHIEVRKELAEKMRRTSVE
- Test parameters: at 1 µM
Quick reference for inhibition among some compounds
Metric: inhibition (%)

INSERT INTO assay_data (compound, value) VALUES
  ('Cc1nn(C)c2cc(N(C)c3ccnc(Nc4cccc(S(N)(=O)=O)c4)n3)ccc12', 7),
  ('CC1=C(C(=O)Nc2ccc3[nH]ncc3c2)C(c2ccc(F)cc2)NC(=O)N1 (stereo not given)', 5.08),
  ('CS(=O)(=O)CCN(CC#N)Cc1ccc(-c2ccc3ncnc(Nc4ccc(OCc5cccc(F)c5)c(Cl)c4)c3c2)o1', -8.08),
  ('N#Cc1c(NC(=O)c2cccc3ccccc23)sc2c1CCCC2', 2.73),
  ('CN1CCC(C(=O)Nc2n[nH]c3nnc(-c4ccccc4)cc23)CC1', 3.72),
  ('CCn1c(-c2nonc2N)nc2cncc(C(=O)N3CC[C@H](N)C3)c21', 14.5),
  ('O=C1NC(=O)C(c2cccc(Cl)c2)=C1Nc1ccc(O)c(Cl)c1', 18.4),
  ('Nc1nc(-c2ccccn2)c(-c2ccc3ncccc3n2)s1', 4.38),
  ('CCn1c(-c2nonc2N)nc2cnc(Oc3cccc(NC(=O)c4ccc(OCCN5CCOCC5)cc4)c3)cc21', 9.41),
  ('COc1cc2ncn(-c3cc(OCc4ccccc4Cl)c(C(N)=O)s3)c2cc1OC', 14.5);

----------
- Experimental target: Ephrin type-B receptor 3 (Homo sapiens) (UniProt P54753);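 note: values are mean percent inhibition of EPHB3 from the GSK PKIS screening panel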
- Sequence (P54753 whole entry): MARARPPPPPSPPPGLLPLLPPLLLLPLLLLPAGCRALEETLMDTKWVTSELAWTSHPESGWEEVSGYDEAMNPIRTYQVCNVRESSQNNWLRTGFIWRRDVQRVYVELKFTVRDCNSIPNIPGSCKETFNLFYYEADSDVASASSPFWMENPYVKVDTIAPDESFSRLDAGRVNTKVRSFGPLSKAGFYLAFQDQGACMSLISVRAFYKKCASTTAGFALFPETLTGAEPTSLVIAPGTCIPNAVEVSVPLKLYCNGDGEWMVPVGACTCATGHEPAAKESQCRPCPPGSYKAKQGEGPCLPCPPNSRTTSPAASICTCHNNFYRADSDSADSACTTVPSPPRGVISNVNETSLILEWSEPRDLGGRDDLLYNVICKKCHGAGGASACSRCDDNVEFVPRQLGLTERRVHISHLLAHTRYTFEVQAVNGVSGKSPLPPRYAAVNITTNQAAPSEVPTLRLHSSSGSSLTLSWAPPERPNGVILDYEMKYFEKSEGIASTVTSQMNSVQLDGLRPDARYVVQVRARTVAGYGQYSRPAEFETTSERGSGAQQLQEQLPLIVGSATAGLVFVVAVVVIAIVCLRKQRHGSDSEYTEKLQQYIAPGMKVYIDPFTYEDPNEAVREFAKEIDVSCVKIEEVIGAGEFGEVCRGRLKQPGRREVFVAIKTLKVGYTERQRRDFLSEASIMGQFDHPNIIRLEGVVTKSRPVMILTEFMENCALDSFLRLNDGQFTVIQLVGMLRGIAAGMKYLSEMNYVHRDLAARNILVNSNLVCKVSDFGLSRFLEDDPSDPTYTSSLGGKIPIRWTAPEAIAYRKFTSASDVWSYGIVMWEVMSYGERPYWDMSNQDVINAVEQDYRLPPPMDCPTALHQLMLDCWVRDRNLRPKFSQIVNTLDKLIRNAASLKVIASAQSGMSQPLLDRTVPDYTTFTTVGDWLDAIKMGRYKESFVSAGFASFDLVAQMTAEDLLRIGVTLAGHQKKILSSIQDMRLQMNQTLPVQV
- Test parameters: at 1 µM
Metric: inhibition (%)

INSERT INTO assay_data (smiles_structure, metric, unit, value) VALUES
  ('COc1cc2ncn(-c3cc(OCc4ccccc4Cl)c(C(N)=O)s3)c2cc1OC', 'inhibition', '%', 1.6),
  ('NS(=O)(=O)c1cccc(-c2ccc3c(NC(=O)C4CC4)n[nH]c3c2)c1', 'inhibition', '%', -3.05),
  ('CCn1c(-c2nonc2N)nc2cncc(C(=O)N3CCNCC3)c21', 'inhibition', '%', 3.77),
  ('COc1ccccc1Nc1ncc(-c2ccccc2)o1', 'inhibition', '%', 3.43),
  ('Nc1nc(-c2ccc3c(c2)C(=Cc2cc(Br)c(O)c(Br)c2)C(=O)N3)cs1', 'inhibition', '%', -4.71),
  ('COc1cc2ncn(-c3cc(O[C@@H](C)c4ccccc4Cl)c(C(N)=O)s3)c2cc1OC', 'inhibition', '%', 3.66),
  ('COc1ccc(-c2coc3ncnc(N)c23)cc1', 'inhibition', '%', 5.65),
  ('CCn1c(-c2nonc2N)nc2c(C#CC(C)(C)O)nc(CN3CCCC3)cc21', 'inhibition', '%', -2.06),
  ('COc1cc(C=NNc2ncnc3c2cnn3-c2ccccc2)ccc1O', 'inhibition', '%', -2.55),
  ('CCn1c(-c2nonc2N)nc2c(C#CC(C)(C)O)nc(OC[C@@H](N)c3ccccc3)cc21', 'inhibition', '%', -0.22);

----------
Quick reference for inhibition among some molecules
- Experimental target: MAP kinase-interacting serine/threonine-protein kinase 2 (Homo sapiens) (UniProt Q9HBH9)
- Sequence (Q9HBH9 whole entry, looked up): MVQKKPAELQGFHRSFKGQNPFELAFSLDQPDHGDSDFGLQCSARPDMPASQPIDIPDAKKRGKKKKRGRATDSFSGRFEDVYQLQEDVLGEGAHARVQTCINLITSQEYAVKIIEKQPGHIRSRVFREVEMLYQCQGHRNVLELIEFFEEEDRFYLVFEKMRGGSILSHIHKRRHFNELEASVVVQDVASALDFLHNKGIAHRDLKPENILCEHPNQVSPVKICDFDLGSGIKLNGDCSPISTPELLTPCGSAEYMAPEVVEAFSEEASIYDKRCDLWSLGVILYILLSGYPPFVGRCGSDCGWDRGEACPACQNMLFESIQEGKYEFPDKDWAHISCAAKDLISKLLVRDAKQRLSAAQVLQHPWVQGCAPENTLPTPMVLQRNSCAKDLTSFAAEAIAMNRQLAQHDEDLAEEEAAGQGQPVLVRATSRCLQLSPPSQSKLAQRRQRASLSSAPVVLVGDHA
- Test parameters: at 0.1 µM
- Description: GSK_PKIS: MNK2 mean inhibition at 0.1 uM [Nanosyn]
Metric: inhibition (%)

INSERT INTO measurements (smiles_structure, experimental_target, metric, value) VALUES
  ('Cc1ccc(NC(=O)c2ccnc(N3CCCC3)c2)cc1-c1ccc(C(=O)NCC2CC2)cc1', 'MAP kinase-interacting serine/threonine-protein kinase 2 (Homo sapiens) (UniProt Q9HBH9)', 'inhibition', -0.01),
  ('O=C1Nc2ccc(C(=O)c3ccco3)cc2C1=Cc1cc(Cl)c(O)c(Cl)c1', 'MAP kinase-interacting serine/threonine-protein kinase 2 (Homo sapiens) (UniProt Q9HBH9)', 'inhibition', 6.52),
  ('COc1cc2c(cc1Nc1nc(N3CCc4ccccc43)c3cc[nH]c3n1)N(C(=O)CN(C)C)CC2', 'MAP kinase-interacting serine/threonine-protein kinase 2 (Homo sapiens) (UniProt Q9HBH9)', 'inhibition', 0.08),
  ('Cc1cccc(-c2n[nH]cc2-c2ccc3ncccc3n2)n1', 'MAP kinase-interacting serine/threonine-protein kinase 2 (Homo sapiens) (UniProt Q9HBH9)', 'inhibition', 0.2),
  ('CC(=O)Nc1cccc(C#Cc2cncnc2Nc2ccc(OCc3cccc(F)c3)c(Cl)c2)n1', 'MAP kinase-interacting serine/threonine-protein kinase 2 (Homo sapiens) (UniProt Q9HBH9)', 'inhibition', 3.48),
  ('NCc1ccc(-c2nc(-c3ccc(Cl)c(O)c3)c(-c3ccncc3)[nH]2)cc1', 'MAP kinase-interacting serine/threonine-protein kinase 2 (Homo sapiens) (UniProt Q9HBH9)', 'inhibition', 1.14),
  ('O=C1NC(=O)C(N2CCc3ccccc32)=C1c1ccc(Cl)cc1', 'MAP kinase-interacting serine/threonine-protein kinase 2 (Homo sapiens) (UniProt Q9HBH9)', 'inhibition', 1),
  ('NS(=O)(=O)c1ccc(N/N=C2\C(=O)Nc3ccc(C(=O)NCCc4c[nH]cn4)cc32)cc1', 'MAP kinase-interacting serine/threonine-protein kinase 2 (Homo sapiens) (UniProt Q9HBH9)', 'inhibition', 1.48),
  ('Cc1cc(O)cc(C)c1/C=C/c1cncc(-c2nn[nH]n2)c1', 'MAP kinase-interacting serine/threonine-protein kinase 2 (Homo sapiens) (UniProt Q9HBH9)', 'inhibition', 22.6),
  ('c1cnn2ncc(-c3ccnc(Nc4ccc5c(c4)OCCO5)n3)c2c1', 'MAP kinase-interacting serine/threonine-protein kinase 2 (Homo sapiens) (UniProt Q9HBH9)', 'inhibition', 4.36),
  ('COc1ccc(-c2coc3ncnc(N)c23)cc1', 'MAP kinase-interacting serine/threonine-protein kinase 2 (Homo sapiens) (UniProt Q9HBH9)', 'inhibition', 0.67),
  ('COc1ccc(-c2ccncc2)cc1C(N)=O', 'MAP kinase-interacting serine/threonine-protein kinase 2 (Homo sapiens) (UniProt Q9HBH9)', 'inhibition', 0.23),
  ('Nc1ncnc2occ(-c3ccc(NC(=O)Nc4cccc(C(F)(F)F)c4)cc3)c12', 'MAP kinase-interacting serine/threonine-protein kinase 2 (Homo sapiens) (UniProt Q9HBH9)', 'inhibition', 9.53),
  ('O=C1NC(=O)C(c2cccc(Cl)c2)=C1Nc1ccc(O)c(Cl)c1', 'MAP kinase-interacting serine/threonine-protein kinase 2 (Homo sapiens) (UniProt Q9HBH9)', 'inhibition', 0.54),
  ('O=C1NC(=O)C(c2ccccc2Cl)=C1Nc1cccc(O)c1', 'MAP kinase-interacting serine/threonine-protein kinase 2 (Homo sapiens) (UniProt Q9HBH9)', 'inhibition', 0.71),
  ('COc1cc2ncn(-c3cc(O[C@H](C)c4ccccc4Cl)c(C(N)=O)s3)c2cc1OC', 'MAP kinase-interacting serine/threonine-protein kinase 2 (Homo sapiens) (UniProt Q9HBH9)', 'inhibition', 3.53),
  ('Fc1cccc(COc2ccc(Nc3ncnc4cc(-c5ccc[nH]5)sc34)cc2Cl)c1', 'MAP kinase-interacting serine/threonine-protein kinase 2 (Homo sapiens) (UniProt Q9HBH9)', 'inhibition', 0.75),
  ('Cc1nn(C)c2cc(N(C)c3ccnc(Nc4cccc(S(N)(=O)=O)c4)n3)ccc12', 'MAP kinase-interacting serine/threonine-protein kinase 2 (Homo sapiens) (UniProt Q9HBH9)', 'inhibition', 2.38),
  ('CCn1c(-c2nonc2N)nc2c(C#CC(C)(C)O)nc(OC[C@@H](N)c3ccccc3)cc21', 'MAP kinase-interacting serine/threonine-protein kinase 2 (Homo sapiens) (UniProt Q9HBH9)', 'inhibition', 0.08),
  ('CS(=O)(=O)CCNCc1ccc(-c2ccc3ncnc(Nc4ccc(OCc5cccc(F)c5)c(C(F)(F)F)c4)c3c2)o1', 'MAP kinase-interacting serine/threonine-protein kinase 2 (Homo sapiens) (UniProt Q9HBH9)', 'inhibition', 3.07),
  ('NC(=O)c1cccc(Nc2nccc(Nc3cccc4[nH]ncc34)n2)c1', 'MAP kinase-interacting serine/threonine-protein kinase 2 (Homo sapiens) (UniProt Q9HBH9)', 'inhibition', 0.64);

----------
- Test system: Proto-oncogene tyrosine-protein kinase receptor Ret (Homo sapiens), P07949 [Y791F]
- Sequence (P07949 whole entry Y791F): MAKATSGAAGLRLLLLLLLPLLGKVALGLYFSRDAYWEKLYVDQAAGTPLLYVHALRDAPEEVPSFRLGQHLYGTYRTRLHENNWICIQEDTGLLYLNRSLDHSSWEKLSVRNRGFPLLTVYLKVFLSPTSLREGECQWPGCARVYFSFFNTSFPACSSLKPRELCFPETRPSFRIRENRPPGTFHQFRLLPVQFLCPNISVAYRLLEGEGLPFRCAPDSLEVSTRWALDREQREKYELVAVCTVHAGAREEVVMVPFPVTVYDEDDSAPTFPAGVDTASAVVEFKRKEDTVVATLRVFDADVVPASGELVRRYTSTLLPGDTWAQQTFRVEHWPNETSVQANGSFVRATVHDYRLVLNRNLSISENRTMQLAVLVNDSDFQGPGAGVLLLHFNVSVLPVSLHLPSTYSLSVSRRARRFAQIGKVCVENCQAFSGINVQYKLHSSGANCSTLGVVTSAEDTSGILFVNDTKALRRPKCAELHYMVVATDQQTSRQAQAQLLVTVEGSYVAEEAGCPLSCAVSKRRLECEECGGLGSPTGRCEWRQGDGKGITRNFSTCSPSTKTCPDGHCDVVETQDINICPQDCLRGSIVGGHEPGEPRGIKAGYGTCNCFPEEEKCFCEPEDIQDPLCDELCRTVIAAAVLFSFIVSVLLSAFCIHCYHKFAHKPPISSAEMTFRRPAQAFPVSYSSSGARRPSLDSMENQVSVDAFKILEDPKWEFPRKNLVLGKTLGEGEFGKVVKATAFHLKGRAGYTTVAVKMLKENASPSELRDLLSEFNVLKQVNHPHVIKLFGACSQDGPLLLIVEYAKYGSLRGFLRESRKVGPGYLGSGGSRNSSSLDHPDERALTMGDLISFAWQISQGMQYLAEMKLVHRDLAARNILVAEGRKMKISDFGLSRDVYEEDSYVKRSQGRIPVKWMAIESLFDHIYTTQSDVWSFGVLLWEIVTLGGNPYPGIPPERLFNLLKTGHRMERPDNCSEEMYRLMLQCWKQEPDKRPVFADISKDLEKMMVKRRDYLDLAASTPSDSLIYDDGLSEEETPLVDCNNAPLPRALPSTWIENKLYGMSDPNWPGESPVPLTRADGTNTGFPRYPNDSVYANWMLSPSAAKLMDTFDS
- Test parameters: at 1 µM
Quick rule: inhibition of at least 10% means Met, below that means Not met.

INSERT INTO assay_data (compound, group_label) VALUES
  ('Cc1ccc(NC(=O)c2ccnc(N3CCCC3)c2)cc1-c1ccc(C(=O)NCC2CC2)cc1', 'Met'),
  ('CCCN1CCC=C(c2ccc(Nc3nc(Nc4ccccc4C(N)=O)c4cc[nH]c4n3)c(C)c2)C1', 'Met'),
  ('COc1ccc2cc(-c3c(-c4ccncc4)nc(-c4ccc([S+](C)[O-])cc4)n3C)ccc2c1 (centres undefined)', 'Not met'),
  ('CCn1c(-c2nonc2N)nc2cncc(C(=O)N3CC[C@H](N)C3)c21', 'Met'),
  ('Cc1nn(C)c2cc(N(C)c3ccnc(Nc4cccc(S(N)(=O)=O)c4)n3)ccc12', 'Met'),
  ('COc1ccc(COc2ccc(Cc3cnc(N)nc3N)cc2OC)cc1', 'Not met'),
  ('CS(=O)(=O)CCNCc1nc(-c2ccc3ncnc(Nc4ccc(F)c(Cl)c4)c3c2)cs1', 'Met'),
  ('CN(C)c1cc2c(Nc3ccc4nc(Cc5ccccc5)[nH]c4c3)ncnc2cn1', 'Met'),
  ('COc1cc2c(cc1Nc1nc(N3CCc4ccccc43)c3cc[nH]c3n1)N(C(=O)CN(C)C)CC2', 'Not met');
